# Tested on: MT1-MMP promoter luciferase reporter cells, luminescence
# MEASUREMENT NOTES: MT1-MMP gene expression reporter suppression – cell-based, luciferase reporter, luminescence (AID 618);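 also: actives suppress MT1-MMP promoter-driven transcription so potencies describe inhibitors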
REPORTED PROPERTY: pEC50
Answer as the number alone; pEC50 is minus log10 of concentration in mol/L.

1) CC(C)(C)C(=O)N1CCc2cc(-c3csc(N)n3)ccc21 = 5.87
2) COc1cccc(C(=O)NCCC2=CCCCC2)c1 = 5.06

Task item: Give me measured pEC50, please, for this compound: `Cc1ccoc1C(=O)Nc1ccc(CC(=O)O)cc1`
Reply: 6.38

Task item: Give me measured pEC50, please, for this compound: `O=C(c1c(Cl)nc2sccn12)N1CCN(c2cccc(Cl)c2)CC1`
Reply: 4.31

Task item: Give me measured pEC50, please, for this compound: `Cc1ccc(C(=O)N/N=C/c2ccc([N+](=O)[O-])s2)cc1`
Reply: 6.52

Task item: Give me measured pEC50, please, for this compound: `Cc1c(NC(=O)c2coc(=O)c(Br)c2)c(=O)n(-c2ccccc2)n1C`
Reply: 4.88

Task item: Give me measured pEC50, please, for this compound: `COc1ccc(C(=O)Nn2c(SCC(=O)N3CCC(C)CC3)nc3ccccc3c2=O)cc1`
Reply: 5.70

* * *

# Test system: MT1-MMP promoter luciferase reporter cells, luminescence
# MEASUREMENT NOTES: MT1-MMP gene expression reporter suppression – cell-based, luciferase reporter, luminescence (AID 618)
Activity calls are given as the source filed them. The rule behind the calls is not given here.
Permitted responses: 1 (yes) for active, 0 (no) for inactive

1. COc1ccc(O)c(C(=O)CC(=O)c2ccccc2)c1 = 1 (yes)
2. Oc1cccc(-c2nc3ccccc3s2)c1 = 1 (yes)
3. O=S1(=O)Nc2c(ccc3cccnc23)-c2ccccc21 = 1 (yes)
4. COc1ccc(-c2cn3nc4c(nc3n2)CCCC4)cc1 = 1 (yes)
5. Cc1cc(C)c(C)c(S(=O)(=O)Nc2ccccc2C(=O)NCCCn2ccnc2)c1C = 1 (yes)

Task item: Could you please tell me the result logged for `c1ccc(-c2ccc(-c3ccccn3)nn2)nc1` in this assay?
Reply: 1 (yes)

Task item: Could you please tell me the result logged for `CCc1cc2c(=O)n(Cc3ccco3)c(SCc3c(C)noc3C)nc2s1` in this assay?
Reply: 0 (no)

Task item: Could you please tell me the result logged for `Cc1cc(/C=N/n2cnnc2)c(C)n1-c1ccc(OCc2ccc(Cl)cc2Cl)cc1` in this assay?
Reply: 1 (yes)

* * *

# Test system: MT1-MMP promoter luciferase reporter cells, luminescence
# MEASUREMENT NOTES: MT1-MMP gene expression reporter suppression – cell-based, luciferase reporter, luminescence (AID 618)
EC50 values for the molecules below.

// worked examples, EC50 included
1) Cc1ccc(C(=O)/C=C2\NCC(C)NC2=O)cc1 (stereo not drawn) = 3.53 µM
2) CC1CCN(c2nc3ccc(C(=O)O)cc3s2)CC1 = 0.35 µM
3) CN(C)c1ccc(NC(=S)c2ccccn2)cc1 = 0.4 µM

Task item: Under MT1-MMP promoter luciferase reporter cells, luminescence, report EC50 for `O=C1/C(=C/Nc2ccc3c(c2)OCO3)CCc2ccccc21`
Reply: 0.81 µM

Task item: Under MT1-MMP promoter luciferase reporter cells, luminescence, report EC50 for `Cc1nn2cc(-c3ccccc3)nc2s1`
Reply: 12.3 µM

Task item: Under MT1-MMP promoter luciferase reporter cells, luminescence, report EC50 for `Cc1ccccc1Cn1nnc(-c2cccc(C(=O)O)c2)n1`
Reply: 18 µM

* * *

# Test system: MT1-MMP promoter luciferase reporter cells, luminescence
# MEASUREMENT NOTES: MT1-MMP gene expression reporter suppression – cell-based, luciferase reporter, luminescence (AID 618)
EC50 values for the compounds below.

// worked examples, EC50 included
1. Cc1cc(-c2csc(N)n2)c(C)n1CCC(C)C = 39.9 µM
2. CCCCN(C)C(=O)c1cc2cc3ccc(OC)cc3nc2s1 = 3.61 µM
3. Cc1ccccc1C(=O)N/N=C/c1ccc([N+](=O)[O-])s1 = 25.5 µM

Task item: Give me measured EC50, please, for this compound: `Nc1ccc2nc(-c3ccccc3)sc2c1`
Reply: 1.91 µM

Task item: Give me measured EC50, please, for this compound: `Cc1oc(-c2ccc3c(c2)OCCO3)cc1C(=O)O`
Reply: 2.94 µM

Task item: Give me measured EC50, please, for this compound: `COc1ccc(C(=O)Nn2c(SCC(=O)NCc3ccco3)nc3ccccc3c2=O)cc1`
Reply: 1.14 µM

* * *

# Tested on: MT1-MMP promoter luciferase reporter cells, luminescence
# MEASUREMENT NOTES: MT1-MMP gene expression reporter suppression – cell-based, luciferase reporter, luminescence (AID 618); call rule not given here
Permitted responses: class 1 (active), class 0 (inactive)

1. C=CCNc1ncnc2c1cnn2-c1ccc(OC)cc1 = class 1
2. Cc1ccc(-c2nc3cc(NC(=O)C(C)C)ccc3o2)cc1 = class 1
3. Cc1cc(N)n2nc(-c3ccccc3)cc2n1 = class 1
4. CCN1C=CC(=C2C(=O)c3ccccc3C2=O)C=C1 = class 1

Now take the following compound into account.
Task item: Could you please tell me the result logged for `COc1cccc(-c2nc3cc(C)ccc3o2)c1` in this assay?
Reply: class 1

* * *

# Test system: MT1-MMP promoter luciferase reporter cells, luminescence
# MEASUREMENT NOTES: MT1-MMP gene expression reporter suppression – cell-based, luciferase reporter, luminescence (AID 618)
Activity calls are given as the source filed them. How the calls were made is not given here.
Permitted responses: 1.0 (active), 0.0 (inactive)

Answered cases to consult:
1) CCCN1C=CC(=C2C(=O)c3ccccc3C2=O)C=C1 = 1.0
2) Cc1cc(C(=O)COC(=O)c2n[nH]c3ccccc23)c(C)n1C = 1.0
3) O=C(CN1C(=O)c2ccccc2S1(=O)=O)c1ccccc1 = 0.0
4) Cc1ccc(NC(=O)N2CCc3ccccc32)cc1 = 1.0
5) Cc1ccc(-n2nc3ccc(N)cc3n2)cc1 = 1.0

Task item: Could you please tell me the result logged for `Cc1ccc2nc(-c3cc(N)cc(N)c3)oc2c1` in this assay?
Reply: 1.0

* * *

# Test system: MT1-MMP promoter luciferase reporter cells, luminescence
# MEASUREMENT NOTES: MT1-MMP gene expression reporter suppression – cell-based, luciferase reporter, luminescence (AID 618); call rule not given here
Permitted responses: active, inactive

Answered cases to consult:
1. C=CCn1c(C)cc(C(=O)CSc2ccc(NC(C)=O)cc2)c1C = active
2. CCc1ccc(NC(=O)c2noc3c2CCC3)cc1 = active
3. Oc1c(CN2CCc3ccccc3C2)cc(Cl)c2cccnc12 = active
4. COC(=O)c1ccc(-c2nc(-c3cccs3)no2)cc1 = active
5. COc1ccc(-c2nsc3c(N4CCCCC4)ncnc23)cc1 = active
6. Cc1ccc(C(=O)Nc2cnc3ccccc3c2)cc1 = active

Now take the following compound into account.
Task item: Could you please tell me the result logged for `CCN(CC)c1ccc2cc(-c3nc4ccccc4[nH]3)c(=O)oc2c1` in this assay?
Reply: active

* * *

# Test system: MT1-MMP promoter luciferase reporter cells, luminescence
# MEASUREMENT NOTES: MT1-MMP gene expression reporter suppression – cell-based, luciferase reporter, luminescence (AID 618);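 also: actives suppress MT1-MMP promoter-driven transcription so potencies describe inhibitors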
pEC50: −log10 of the molar value.
Classification field: enter 1 (yes) for pEC50 values not below 6, 0 (no) for values below it.

Answered cases to consult:
1) CN(C(=O)c1ccco1)c1nc2c(s1)CCCC2 = 0 (no)
2) CC(C)(C)c1ccc(-c2noc(CCC(N)=O)n2)cc1 = 1 (yes)
3) CCOC(=O)/C(=C\c1ccccc1)C(=O)c1cc(C(C)=O)c(Nc2ccccc2)s1 = 0 (no)
4) O=C(/C=C\Nc1ccccn1)c1ccccc1 = 0 (no)

Now take the following molecule into account.
Task item: Hello, I need to know if `C/C(=N/NC(=O)c1cc(C2CC2)[nH]n1)c1cccs1` has measured pEC50 not below 6. Thanks!
Reply: 0 (no)

* * *

pEC50 values for the compounds below.
# Tested on: MT1-MMP promoter luciferase reporter cells, luminescence
# MEASUREMENT NOTES: MT1-MMP gene expression reporter suppression – cell-based, luciferase reporter, luminescence (AID 618);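 also: actives suppress MT1-MMP promoter-driven transcription so potencies describe inhibitors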
Answer as the number alone; pEC50 is minus log10 of concentration in mol/L.

Task item: Give me measured pEC50, please, for this compound: `c1ccc(-c2ccc(-c3nc(-c4ccncc4)no3)cc2)cc1`
Reply: 5.04

* * *

# Test system: MT1-MMP promoter luciferase reporter cells, luminescence
# MEASUREMENT NOTES: MT1-MMP gene expression reporter suppression – cell-based, luciferase reporter, luminescence (AID 618);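 also: actives suppress MT1-MMP promoter-driven transcription so potencies describe inhibitors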
pEC50 values for the molecules below.
Answer as the number alone; pEC50 is minus log10 of concentration in mol/L.

// worked examples, pEC50 included
1. COc1ccccc1-c1nc(-c2ccccn2)no1 = 5.74
2. CCCCc1ccc(-c2nc(-c3ccncc3)no2)cc1 = 4.87
3. CCOC(=O)CCS(=O)(=O)c1nc(-c2ccccc2)cc(C(F)(F)F)n1 = 4.80

Task item: Give me measured pEC50, please, for this molecule: `Clc1ccc(-c2nnc(N3CCCC3)nn2)cc1`
Reply: 5.20
